- Tested on: SN40R2 cells
- Protocol details: Protocol B: SN40R2 CellTiter-Glo luminescent cell viability assay
- Measurement context: read-out: SN40R2 % inhibition at 10
Assay readout: inhibition at 10 µM (%)
Just the number please, in %, no unit attached.

Solved cases (2 shown):
CCC(O)(c1cc(F)c2c(c1)C(=O)N(Cc1ccc(C#N)cn1)[C@@]2(O[C@H]1C[C@@H](O)C1)c1ccc(Cl)cc1)c1cnn(C)c1 (stereo partly drawn) [Example 339]; 3
CC[C@@](O)(c1cc(F)c2c(c1)C(=O)N(Cc1ncc(C#N)cn1)[C@@]2(OCCO)c1ccc(Cl)cc1)C1(F)CCOCC1 [Example 509]; 6

Recorded result, CC[C@@](O)(c1cc(F)c2c(c1)C(=O)N(Cc1ncc(Cl)cn1)[C@@]2(OC)c1ccc(Cl)cc1)C1CCN(C)CC1 [Example 553] , inhibition at 10 µM: 24

* * *

Each entry below carries its reported inhibition at 0.001 µM.
- Study system: MDM2-p53 interaction (Homo sapiens (Human), UniProt Q00987)
- Sequence (Q00987 whole entry): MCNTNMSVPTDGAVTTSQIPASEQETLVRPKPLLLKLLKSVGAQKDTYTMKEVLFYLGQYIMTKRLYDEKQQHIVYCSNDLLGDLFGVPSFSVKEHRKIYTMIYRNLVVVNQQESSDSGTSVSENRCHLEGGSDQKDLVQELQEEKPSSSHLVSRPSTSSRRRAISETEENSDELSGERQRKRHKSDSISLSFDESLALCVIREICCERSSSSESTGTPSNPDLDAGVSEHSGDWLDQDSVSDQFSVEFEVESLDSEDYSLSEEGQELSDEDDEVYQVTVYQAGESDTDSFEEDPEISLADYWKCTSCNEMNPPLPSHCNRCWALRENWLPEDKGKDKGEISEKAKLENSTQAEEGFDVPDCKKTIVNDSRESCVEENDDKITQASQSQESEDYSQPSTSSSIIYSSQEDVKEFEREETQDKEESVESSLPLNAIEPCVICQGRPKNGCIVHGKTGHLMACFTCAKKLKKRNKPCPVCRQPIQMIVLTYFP
- Measurement context: read-out: MDM2 % inhibition @0.0010
Just the number please, in %, no unit attached.

CCC(O)(c1cc(F)c2c(c1)C(=O)N(Cc1ncc(Cl)cn1)[C@@]2(OC)c1ccc(Cl)cc1)[C@H]1CC[C@H](O)CC1 (some centres unmarked) [Example 511]; 72
CCC(O)(c1cc(F)c2c(c1)C(=O)N(Cc1ncc(Cl)cn1)[C@@]2(OCC1(C#N)CC1)c1ccc(Cl)cc1)C1(F)CCNCC1 (single isomer, unassigned) [Example 545]; 94
CCC(O)(c1cc(F)c2c(c1)C(=O)N(Cc1ccc(C#N)cn1)[C@@]2(OC)c1ccc(Cl)cc1)[C@H]1CC[C@H](O)CC1 (single isomer, unassigned) [Example 521]; 77
CCC(O)(c1cc(F)c2c(c1)C(=O)N(Cc1ccc(C#N)nc1)[C@@]2(O[C@H]1CCOC1)c1ccc(Cl)cc1)c1cn(C)cn1 (single isomer, unassigned) [Example 431]; 48
CCC(O)(c1cc(F)c2c(c1)C(=O)N(Cc1ncc(C#N)cn1)[C@@]2(O[C@H]1CCOC1)c1ccc(Cl)cc1)C1(F)CCN(C)CC1 (single isomer, unassigned) [Example 561]; 47
CCC(O)(c1cc(F)c2c(c1)C(=O)N(Cc1ncc(Cl)cn1)[C@@]2(OC[C@@H](C)O)c1ccc(Cl)cc1)C1(F)CCNCC1 (single isomer, unassigned) [Example 543]; 68

Recorded result, CCC(O)(c1cc(F)c2c(c1)C(=O)N(Cc1ncc(C#N)cn1)[C@@]2(OCCO)c1ccc(Cl)cc1)[C@H]1CC[C@H](O)CC1 (some centres unmarked) [Example 510] , inhibition at 0.001 µM: 79

Recorded result, CCC(O)(CN1CCNCC1)c1cc(F)c2c(c1)C(=O)N(Cc1ncc(Cl)cn1)[C@@]2(OCC1(C#N)CC1)c1ccc(Cl)cc1 (single isomer, unassigned) [Example 536] , inhibition at 0.001 µM: 64

Recorded result, CC[C@@](O)(c1cc(F)c2c(c1)C(=O)N(Cc1ncc(Cl)cn1)[C@@]2(OCC1(CO)CC1)c1ccc(Cl)cc1)C1CCN(C)CC1 [Example 556] , inhibition at 0.001 µM: 91

Recorded result, CCC(O)(c1cc(F)c2c(c1)C(=O)N(Cc1ncc(Cl)cn1)[C@@]2(OCCO)c1ccc(Cl)cc1)[C@H]1CC[C@H](O)CC1 (single isomer, unassigned) [Example 517] , inhibition at 0.001 µM: 82

Recorded result, CC[C@@](O)(c1cc(F)c2c(c1)C(=O)N(Cc1ncc(Cl)cn1)[C@@]2(OC)c1ccc(Cl)cc1)C1CCN(C2COC2)CC1 [Example 551] , inhibition at 0.001 µM: 70

Attribution: patent US11236047B2
